// data source = PubChem BioAssay (NCI)

- Tested on: SW-620 colon
- METHOD NOTES: NCI tumour cell line growth inhibition, 48 h
For each entry below, report its TGI value.

Answered cases to consult:
C=C1CC2(OC1=O)C(=O)N(C)c1ccc(I)cc12 (centres undefined): 2.04 µM
Cc1c(S(=O)(=O)/N=C(\NN)Nc2ccc(Cl)cc2)sc2ccc(Cl)cc12: 71.2 µM

For every item below, please supply its TGI.
1. COc1cc(/C=C2/SC(c3ccccc3)N(c3cccc(NC(C)=O)c3)C2=O)cc(OC)c1OC (centres undefined)
2. NS(=O)(=O)c1ccc(N=Cc2c(O)[nH]c3ccc4ncsc4c23)cc1
3. COc1cc(/C=C/C(=O)c2ccc(Nc3nc(Nc4ccc(F)cc4)nc(Nc4ccc(Cl)cc4)n3)cc2)cc(OC)c1OC
4. O=C(CN=C(CN(c1ccccc1)c1ccccc1)Oc1c(Cl)cc(Cl)cc1Cl)N1c2ccccc2Sc2ccccc21
5. CCOC(=O)c1csc(CCCCCCc2nc(C(=O)OCC)cs2)n1
6. COc1ccc(C2/C(=C(\O)c3ccccc3)C(=O)C(O)(CC(=O)c3ccccc3)N2c2ccc(OC)cc2)cc1 (centres undefined)
7. O=C(ON=c1c2ccccc2ccc2ccccc12)c1ccccc1

output:
1. > 100 µM
2. > 21.9 µM
3. 17.2 µM
4. > 100 µM
5. > 65.4 µM
6. > 56.6 µM
7. 43.3 µM

---

- Tested on: A498 renal
- METHOD NOTES: NCI tumour cell line growth inhibition, 48 h
For each entry below, report its TGI value.
Numbers only, in µM.

CC(=O)Oc1ccc2[nH]c3c(C)c4cccc-4ccc3c2c1: 5.53

Attention now turns to another entry.
input: Param item = CC1CN=C(N(Cc2ccc(F)cc2)C(=O)Nc2ccc(Cl)cc2)S1 (stereo not drawn) ; retrieve measured TGI.
output: 67.4

---

- Test system: HL-60(TB) leukemia
- METHOD NOTES: NCI tumour cell line growth inhibition, 48 h; in the data active = GI50 below about 0.43 µM; inactive = the rest
Valid outcomes are listed here; reply with one: active, inactive

input: Could you check what this test reported for COc1ncc(-c2ccc3nccc(C#CCCCCC(=O)O)c3c2)cc1NS(=O)(=O)c1ccc(F)cc1F ?
output: active

input: Could you check what this test reported for CCNCCCn1c2c(c3ccc(F)cc3c1=O)C(=O)c1cc(OC)cnc1-2 ?
output: active

input: Could you check what this test reported for O=C(Nc1cccc(-n2ccc3c(NC(=O)c4ccccc4)nccc32)c1)Nc1ccc(Cl)c(C(F)(F)F)c1 ?
output: active

---

- Tested on: DLD-1 colon
- METHOD NOTES: NCI tumour cell line growth inhibition, 48 h
For each entry below, report its TGI value.

Answered cases to consult:
COc1cc(CN[C@H]2CCc3cc(OC)c(OC)c(OC)c3-c3ccc(SC)c(=O)cc32)cc(OC)c1: > 100 µM
COc1ccc(C(c2ccc(C(C)C)cc(OC)c2=O)c2ccc(C(C)C)cc(OC)c2=O)cc1: 19.6 µM
O=C1O[C@@H](c2ccccc2)C[C@H]1CN1CCOCC1: > 100 µM
CN(C)c1[se]nc2c1c(=O)n(C)c(=O)n2C: > 100 µM
O=[N+]([O-])c1ccc2[nH]c3c(-c4ccccc4)nccc3c2c1: > 94.3 µM

For every item below, please supply its TGI.
1. CCCCc1c2c(nc3c1CCCC3=O)C(=O)CCC2
2. Cc1nc2c(n1CC(C)C)C(=O)c1ccccc1C2=O
3. Sc1ccccc1S
4. O=C(NO)C(=O)Nc1cc(Cl)ccc1Cl
5. CN(C)c1nc(=Nc2ccc3c(c2)OCO3)ss1

output:
> 100 µM
> 100 µM
> 100 µM
> 100 µM
> 100 µM

For every item below, please supply its TGI.
1. O=[N+]([O-])c1ccc(C2N3CCCCC3[C@H]3CCCCN23)cc1 (some centres not stated)
2. O=C1C=CC(=O)c2c(O)ccc(O)c21
3. CCN(C(=N)C#N)c1ccccc1
4. CCOC(=O)c1csc(CCCCCCc2nc(C(=O)OCC)cs2)n1
5. CCCCCOc1ccc(C=Nc2ccc(-c3ccc(N=Cc4ccc(OCCCCC)cc4)c(OC)c3)cc2OC)cc1
6. O=C1c2ccccc2C(=O)N1C/C=N/NS(=O)(=O)c1ccc(F)cc1
7. N#Cc1c2c(c(Cl)n3c1nc1ccccc13)CCCC2

output:
1. > 100 µM
2. 0.891 µM
3. > 65.6 µM
4. > 100 µM
5. > 100 µM
6. > 100 µM
7. 24.2 µM

For every item below, please supply its TGI.
1. Cn1c2c([N+](=O)[O-])cccc2c(=O)c2c(O)cc3c(c21)C=CC(C)(C)O3
2. CNc1ccc(/C=C2\C=Cc3ccccc32)cc1
3. COC(=O)CCC1=NOC(CC2CC(CCC(=O)OC)=NO2)C1 (configuration not stated)

output:
["> 100 µM", "> 100 µM", "> 100 µM"]

For every item below, please supply its TGI.
1. C[CH2][Sn]([CH2]C)([O]C(=O)c1cccc(OC)c1)[O][Sn]([CH2]C)([CH2]C)[O]C(=O)c1cccc(OC)c1
2. COC(=O)C1Cc2c([nH]c3ccccc23)C(C2CCCCC2)N1 (configuration not stated)

output:
["29.6 µM", "> 100 µM"]
